Record form. Attribute: inhibition. Fill in for each entry.
Biological target: Muscarinic acetylcholine receptor M1 (Homo sapiens)
Conditions: Compound concentration 10 µM
Description: PDSP Primary Binding target: CHRM1 - Compounds are tested at 10 uM concentration, plate are incubated at room temperature in the dark for 90 minutes. Reaction are stopped by vacuum filtration onto 0.3% polyethyleneimine soaked filter mats using Filtermate harvester. Scintilation cocktail is then melted onto microwave-dried filters on a hot plate and the radio activity is counted in Microbia counter.
Lab book: enter the figure in %, no units written.

Under Muscarinic acetylcholine receptor M1 (Homo sapiens): inhibition value of "CSc1ccc(C(=O)N[C@@H]2CCCC[C@@H]2NC(=O)CNC(=O)c2cc(C(F)(F)F)ccc2NC(=O)NC(C)C)cc1" ?
28.4

Under Muscarinic acetylcholine receptor M1 (Homo sapiens): inhibition value of "CN1CCN(c2ccc(Nc3c4ccccc4nc4ccccc34)cc2)CC1" ?
51.2

Under Muscarinic acetylcholine receptor M1 (Homo sapiens): inhibition value of "CCCCCNC(=N)N/N=C/c1c[nH]c2ccc(OC)cc12" ?
19.6

Under Muscarinic acetylcholine receptor M1 (Homo sapiens): inhibition value of "CCCCC#Cc1nc(NC)c2ncn([C@@H]3O[C@H](CO)[C@@H](O)[C@H]3O)c2n1" ?
-6.77

Under Muscarinic acetylcholine receptor M1 (Homo sapiens): inhibition value of "Cc1cn2cc(CC(=O)N3CCC4(CC3)CN(Cc3ccc(-n5nccn5)cc3Cl)C4)nc2s1" ?
51.1

Under Muscarinic acetylcholine receptor M1 (Homo sapiens): inhibition value of Cc1c(OCc2cccc(-c3ccc(C(=O)O)cc3)c2)cc2c(c1C)C(=O)C(C1CCCC1)C2 (stereo unspecified) ?
-9.01
